Data origin: ChEMBL document CHEMBL1129601

Below, each entry is listed alongside its reported remaining at 24 h.
testDescription: Solution Degradation Studies measured by compound unchanged at pH 6.4 = 50% water / 50% acetonitrile at 24 hours
Type: ADME
experimentalContext: 50% water / 50% acetonitrile solution, read-out: Unchanged
The response must be a number in % with no trailing unit.

                                smilesentry  recordedmeasurement
0  CC(C)c1cccc(C(C)C)c1OS(=O)(=O)NC(=O)Oc1c(C(C)(C)C)cccc1C(C)(C)C                   98

Let's switch to this compound now.
Write down remaining at 24 h measured for item Cc1cccc(C)c1OC(=O)NS(=O)(=O)Oc1c(C(C)C)cccc1C(C)C
20
